Tested on: human peripheral blood mononuclear cells (hPBMC)
Assay: human PBMC assay, Example 3 (oligo and PLGA added at the same time, 48 well plates)
Assay type: cell-based
Details: donor 28034; oligo 20 μg/ml, PLGA 250 μg/ml; 24 hours
Listed here are substances together with their documented IFN-γ.
parameter: IFN-γ (pg/mL)

1) 5′-TGACTGTGAACCTTAGAGATGA-3′ (DNA, all phosphorothioate, methylation of C not given here) [ISS−, reference compound]    8
2) 5′-ATCGAT-3′ [Oligonucleotide 6-7]    3
3) 5′-TGACTGTGAACGTTCGAGATGA-3′ [ISS+, reference compound]    223
4) 5′-AACGTT-3′ [Oligonucleotide 6-16]    3
5) 5′-TCGTCG-3′ [Oligonucleotide 6-1]    4
